// provenance: the supplement of paper PMC6555819

# Tested on: LXRb:RXRa (NR concentration 270 nM, RXRa partner concentration 90 nM)
# Test details: PBM binding z-score (relative to random genomic background probes); higher = stronger binding; sequences stand for … in GC…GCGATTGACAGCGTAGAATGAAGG
PBM binding z-score vs 2: at or above is class 1, below is class 0.

>>> discrete_label("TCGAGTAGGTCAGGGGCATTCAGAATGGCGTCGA")
"class 0"
>>> discrete_label("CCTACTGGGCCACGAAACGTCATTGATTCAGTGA")
"class 0"
>>> discrete_label("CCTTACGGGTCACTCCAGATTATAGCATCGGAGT")
"class 1"
>>> discrete_label("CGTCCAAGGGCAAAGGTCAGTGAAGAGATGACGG")
"class 1"
>>> discrete_label("CCAACTGGGGCAAGGTTACCATAACGCACAGCCA")
"class 0"

Q: Check the entry `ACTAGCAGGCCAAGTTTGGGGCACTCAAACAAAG` : does PBM binding z-score equal or exceed 2?
Result: class 0

====

# Tested on: THRa homodimer (NR concentration 90 nM)
# Test details: PBM binding z-score (relative to random genomic background probes); higher = stronger binding; sequences stand for … in GC…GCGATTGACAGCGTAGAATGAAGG
Property: PBM binding z-score
Enter a number only.

Completed entries (count: 3):
>>> reported_measurement("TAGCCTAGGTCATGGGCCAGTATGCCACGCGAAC")
1.16
>>> reported_measurement("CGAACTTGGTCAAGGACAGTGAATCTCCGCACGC")
1.37
>>> reported_measurement("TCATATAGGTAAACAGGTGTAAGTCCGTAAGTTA")
0.324

get_value(item= `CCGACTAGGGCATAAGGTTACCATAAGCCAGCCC` , readout=PBM binding z-score) returns 1.08

get_value(item= `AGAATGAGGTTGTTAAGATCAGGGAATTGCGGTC` , readout=PBM binding z-score) returns 0.246

get_value(item= `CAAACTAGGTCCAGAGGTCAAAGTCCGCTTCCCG` , readout=PBM binding z-score) returns 1.72

get_value(item= `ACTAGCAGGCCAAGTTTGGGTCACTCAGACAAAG` , readout=PBM binding z-score) returns 0.94

get_value(item= `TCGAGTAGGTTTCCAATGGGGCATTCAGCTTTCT` , readout=PBM binding z-score) returns -0.262

====

# Test system: PPARg:RXRa 270nM:90nM, anti-RXR (NR concentration 270 nM, RXRa partner concentration 90 nM)
# Test details: PBM binding z-score (relative to random genomic background probes); higher = stronger binding; sequences stand for … in GC…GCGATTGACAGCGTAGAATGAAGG
PBM binding z-score vs 4: at or above is true (1), below is false (0).

Q: Check the entry `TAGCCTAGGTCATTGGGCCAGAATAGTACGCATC` : does PBM binding z-score equal or exceed 4?
Result: false (0)

Q: Check the entry `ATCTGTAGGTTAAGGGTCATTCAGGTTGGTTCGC` : does PBM binding z-score equal or exceed 4?
Result: true (1)

Q: Check the entry `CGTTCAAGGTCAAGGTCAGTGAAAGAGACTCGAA` : does PBM binding z-score equal or exceed 4?
Result: true (1)

Q: Check the entry `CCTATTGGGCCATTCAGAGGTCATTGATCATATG` : does PBM binding z-score equal or exceed 4?
Result: false (0)

Q: Check the entry `ATCTTTAGGTAAAGTTCAGTGAAAGATCGATAGA` : does PBM binding z-score equal or exceed 4?
Result: false (0)

Q: Check the entry `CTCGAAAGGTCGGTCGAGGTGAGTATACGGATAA` : does PBM binding z-score equal or exceed 4?
Result: false (0)

====

Listed next: entries and their corresponding PBM binding z-score.
# System: PPARa:RXRa (NR concentration 270 nM, RXRa partner concentration 90 nM)
# Test details: PBM binding z-score (relative to random genomic background probes); higher = stronger binding; sequences stand for … in GC…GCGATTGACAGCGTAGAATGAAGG
Enter a number only.

get_value(item= `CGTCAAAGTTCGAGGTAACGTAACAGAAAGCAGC` , readout=PBM binding z-score) returns 1.74

get_value(item= `AGAATGAGGTTACTAAGATCAGGGAATTGCGGTC` , readout=PBM binding z-score) returns 2.62

get_value(item= `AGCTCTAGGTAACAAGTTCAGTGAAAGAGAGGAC` , readout=PBM binding z-score) returns 1.53

get_value(item= `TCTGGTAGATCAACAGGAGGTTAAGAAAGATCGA` , readout=PBM binding z-score) returns 1.24

get_value(item= `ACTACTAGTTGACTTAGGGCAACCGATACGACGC` , readout=PBM binding z-score) returns 0.123

====

# Test system: RXRa DBDmut IVT, anti-RXR (DBD mutation: RXRa K156A/R161A, NR concentration 90 nM)
# Test details: PBM binding z-score (relative to random genomic background probes); higher = stronger binding; sequences stand for … in GC…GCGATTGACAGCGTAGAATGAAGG
PBM binding z-score vs 0.6: at or above is Y, below is N.

Illustrative cases are given below, each with its answer.
>>> discrete_label("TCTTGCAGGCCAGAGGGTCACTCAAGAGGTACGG")
"N"
>>> discrete_label("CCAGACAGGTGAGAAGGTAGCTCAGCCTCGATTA")
"N"

Q: Check the entry `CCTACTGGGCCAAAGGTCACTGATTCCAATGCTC` : does PBM binding z-score equal or exceed 0.6?
Result: Y

Q: Check the entry `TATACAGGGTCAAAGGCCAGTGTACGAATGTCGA` : does PBM binding z-score equal or exceed 0.6?
Result: Y

Q: Check the entry `AATACAGGGTCATGGTAGGCCAGAGTACGCACAG` : does PBM binding z-score equal or exceed 0.6?
Result: Y

====

# System: RARg:RXRa (NR concentration 270 nM, RXRa partner concentration 90 nM)
# Test details: PBM binding z-score (relative to random genomic background probes); higher = stronger binding; sequences stand for … in GC…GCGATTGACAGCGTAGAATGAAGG
Listed next: entries and their corresponding PBM binding z-score.
Enter a number only.

get_value(item= `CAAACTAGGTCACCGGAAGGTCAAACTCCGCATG` , readout=PBM binding z-score) returns 8.28

get_value(item= `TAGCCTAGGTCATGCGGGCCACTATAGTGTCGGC` , readout=PBM binding z-score) returns 4.13

get_value(item= `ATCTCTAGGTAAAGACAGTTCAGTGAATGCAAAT` , readout=PBM binding z-score) returns 0.452

get_value(item= `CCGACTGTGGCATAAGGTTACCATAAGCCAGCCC` , readout=PBM binding z-score) returns 0.6

====

# Test system: RXRa DBDmut IVT, anti-RXR (DBD mutation: RXRa K156A/R161A, NR concentration 90 nM)
# Test details: PBM binding z-score (relative to random genomic background probes); higher = stronger binding; sequences stand for … in GC…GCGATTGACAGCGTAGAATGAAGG
Property: PBM binding z-score

>>> reported_measurement("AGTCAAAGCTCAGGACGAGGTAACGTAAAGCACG")
-0.664
>>> reported_measurement("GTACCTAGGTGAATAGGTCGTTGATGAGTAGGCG")
-0.37
>>> reported_measurement("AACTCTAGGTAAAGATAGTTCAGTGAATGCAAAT")
0.162

get_value(item= `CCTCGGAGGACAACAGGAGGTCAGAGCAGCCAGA` , readout=PBM binding z-score) returns -0.0172

====

# System: RARb:RXRa (NR concentration 270 nM, RXRa partner concentration 90 nM)
# Test details: PBM binding z-score (relative to random genomic background probes); higher = stronger binding; sequences stand for … in GC…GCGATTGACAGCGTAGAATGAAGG
Listed next: entries and their corresponding PBM binding z-score.
Enter a number only.

Completed entries (count: 5):
>>> reported_measurement("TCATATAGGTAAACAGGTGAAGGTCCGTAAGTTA")
0.842
>>> reported_measurement("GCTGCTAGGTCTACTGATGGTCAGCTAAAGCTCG")
-0.132
>>> reported_measurement("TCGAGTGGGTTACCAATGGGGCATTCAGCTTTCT")
0.353
>>> reported_measurement("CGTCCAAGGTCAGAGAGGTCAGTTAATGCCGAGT")
5.22
>>> reported_measurement("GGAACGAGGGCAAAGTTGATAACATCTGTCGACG")
2.25

get_value(item= `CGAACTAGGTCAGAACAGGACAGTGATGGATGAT` , readout=PBM binding z-score) returns 2.66

get_value(item= `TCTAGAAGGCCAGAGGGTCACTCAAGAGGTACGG` , readout=PBM binding z-score) returns 2.68

====

# Tested on: RXRa DBDmut IVT, anti-RXR (DBD mutation: RXRa K156A/R161A, NR concentration 90 nM)
# Test details: PBM binding z-score (relative to random genomic background probes); higher = stronger binding; sequences stand for … in GC…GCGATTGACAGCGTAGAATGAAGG
PBM binding z-score vs 1: at or above is Satisfied, below is Not satisfied.

Illustrative cases are given below, each with its answer.
>>> discrete_label("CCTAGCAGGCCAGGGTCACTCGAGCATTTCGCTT")
"Not satisfied"
>>> discrete_label("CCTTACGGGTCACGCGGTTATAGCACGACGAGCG")
"Satisfied"
>>> discrete_label("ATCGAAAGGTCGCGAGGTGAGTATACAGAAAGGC")
"Not satisfied"

Q: Check the entry `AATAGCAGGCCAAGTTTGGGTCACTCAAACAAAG` : does PBM binding z-score equal or exceed 1?
Result: Not satisfied

Q: Check the entry `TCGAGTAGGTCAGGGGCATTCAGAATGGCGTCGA` : does PBM binding z-score equal or exceed 1?
Result: Not satisfied

Q: Check the entry `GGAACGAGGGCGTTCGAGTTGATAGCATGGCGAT` : does PBM binding z-score equal or exceed 1?
Result: Satisfied

Q: Check the entry `CGAACGGGGGCATGAGTTGATAGCAAATGCCGAT` : does PBM binding z-score equal or exceed 1?
Result: Satisfied

Q: Check the entry `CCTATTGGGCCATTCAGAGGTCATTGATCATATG` : does PBM binding z-score equal or exceed 1?
Result: Satisfied

Q: Check the entry `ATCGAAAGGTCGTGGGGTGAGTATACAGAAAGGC` : does PBM binding z-score equal or exceed 1?
Result: Satisfied
